Form field: KRas G12D mutant + SOS: % inh. (one value per entry).
system: KRas G12D mutant; assay: Ras GTP Binding Domain Inhibition Assay, KRas G12D mutant; settings: at 20 μM; with SOS; Table 8

Compound | Measured
COCCCOc1nc(-c2nccn2C)nc2sc(-c3ccn(C(C)C)n3)c(-c3ccccc3)c12 [Compound 37] | 0 (0 = 0% inhibition)

// switching to the query compound
Query: KRas G12D mutant + SOS: % inh.; subject: COCCCCn1c(-c2nccn2C)nc2sc(-c3ccn(C(C)C)n3)c(C)c2c1=O [Compound 33]
Result: 0 (0 = 0% inhibition)

* * *

system: KRas G12D mutant; test: Ras GTP Binding Domain Inhibition Assay, KRas G12D mutant; conditions: at 20 μM; without SOS; Table 8
Attribute Measured: KRas G12D mutant: % inh.

Query: // query KRas G12D mutant: % inh. value for entry COCCCn1c(-c2nccn2C)nc2sc(-c3ccn(C(C)C)n3)c(-c3ccccc3)c2c1=O [Compound 36]
Result: 0 (0 = 0% inhibition)

* * *

system: KRas G12D mutant; assay: Ras GTP Binding Domain Inhibition Assay, KRas G12D mutant; details: at 20 μM; with SOS; Table 7
Attribute Measured: KRas G12D mutant + SOS: % inh.

Query: For the compound COc1cc(Cn2c(-c3nccn3C)nc3sc(-c4ccn(C(C)C)n4)c(C)c3c2=O)ncn1 , what KRas G12D mutant + SOS: % inh. is on record?
Result: 0 (0 = 0% inhibition)

* * *

system: KRas G12D mutant; test: Ras GTP Binding Domain Inhibition Assay, KRas G12D mutant; details: at 20 μM; with SOS; Table 8
Attribute Measured: KRas G12D mutant + SOS: % inh.

Query: Data request, read-out KRas G12D mutant + SOS: % inh., for COCCCCOc1nc(-c2nccn2C)nc2sc(-c3ccn(C(C)C)n3)c(C)c12
Result: 0 (0 = 0% inhibition)

* * *

tested on: Rho-A; assay: Ras GTP Binding Domain Inhibition Assay, Rho-A; conditions: at 20 μM; without SOS
Attribute Measured: Rho-A: % inh.

Query: State its Rho-A: % inh. on Rho-A: COCCCCn1c(-c2nccn2C)nc2sc(-c3ccn(C(C)C)n3)c(C)c2c1=O [Compound 33]
Result: 0 (0 = 0% inhibition)

* * *

system: KRas G12D mutant; test: Ras GTP Binding Domain Inhibition Assay, KRas G12D mutant; settings: at 20 μM; without SOS; Table 7
Attribute Measured: KRas G12D mutant: % inh.

Compound | Attribute Measured | Measured
COc1cccc(-c2sc3nc(-c4nccn4C)nc(N[C@@H]4CC[C@@H](OC)C4)c3c2-c2ccccc2)c1F (racemic) | KRas G12D mutant: % inh. | A (A = 1-25% inhibition)
CO[C@H]1CC[C@@H](Nc2nc(-c3nccn3C)nc3sc(-c4ccn(C)n4)c(-c4ccccc4)c23)C1 (racemic) | KRas G12D mutant: % inh. | A (A = 1-25% inhibition)

* * *

system: KRas G12C mutant; assay: Ras GTP Binding Domain Inhibition Assay, KRas G12C mutant; conditions: at 20 μM; with SOS
Attribute Measured: KRas G12C mutant + SOS: % inh.

Query: Which KRas G12C mutant + SOS: % inh. value is on record for COCCCOc1nc(-c2nccn2C)nc2sc(-c3ccn(C(C)C)n3)c(-c3ccccc3)c12 ?
Result: 0 (0 = 0% inhibition)
